System: K562 cells
Experiment: Cell viability of infected K562 cells by Celltiter Glo
Assay type: cell-based, human
Details: K562 infection, same range of inhibitor concentrations, read-out: CC50 (concentration of 50% cell death)
Listed below: CC50 values for each entry.

compound_smiles	CC50
C=C(CC[C@]12O[C@H](C(=O)O)[C@@](O)(C(=O)O)[C@](C(=O)O)(O1)[C@H](OC(=O)/C=C/[C@@H](C)C[C@@H](C)CC)[C@H]2O)[C@@H](OC(C)=O)[C@H](C)Cc1ccccc1	> 50 µM

// below: CC50 requested for another molecule
Please list CC50 recorded for the molecule CC(C)C[C@H](NC(=O)c1ccc(NCc2cnc[nH]2)cc1-c1cccc2ccccc12)C(=O)O
> 50 µM

###

Experiment: Cell viability of infected K562 cells by Celltiter Glo
Type: cell-based, human
Conditions: human, K562 cells infected with dengue NGC virus, K562 infection, same range of inhibitor concentrations, read-out: CC50 (concentration of 50% cell death)
observable: CC50 at 2 days (µM)
Give just the number in µM; leave the unit off.

compound	unit_label	CC50 at 2 days
CC[C@H](C)C(=O)O[C@H]1C[C@@H](C)C=C2C=C[C@H](C)[C@H](CC[C@@H]3C[C@@H](O)CC(=O)O3)[C@H]21	µM	46.8

Report measured CC50 at 2 days; entry is CC(C)n1c(/C=C/C(O)CC(O)CC(=O)O)c(-c2ccc(F)cc2)c2ccccc21 (centres unmarked)
48.8
